system: SET-2 cells (JAK2 V617F); test: Inhibition of cell proliferation by MTT experiment, SET-2; format: cell-based; conditions: Homo sapiens, SET-2, 72 h, read-out: IC50 value on cell proliferation inhibition, SET-2 (V617F)
VALUE KIND: IC50

[[record]]
compound_structure_string = "Cc1cnc(Nc2ccc(N3CCC(N(C)CCO)CC3)c(F)c2)nc1-c1cnn(C(C)C)c1"
experimental_system = "SET-2 cells (JAK2 V617F)"
value_kind = "IC50"
experimental_value = "10 to 100 nM"


---

# reported Kinase activity @ 500 nM (%) JAK2; entries follow
target: JAK2 (Homo sapiens); construct: purchased Eurofins; assay: In vitro kinase activity experiment, JAK2; assay type: biochemical; settings: inhibition rate of enzyme at 500 nM; measured by Eurofins
Sequence (O60674 whole entry): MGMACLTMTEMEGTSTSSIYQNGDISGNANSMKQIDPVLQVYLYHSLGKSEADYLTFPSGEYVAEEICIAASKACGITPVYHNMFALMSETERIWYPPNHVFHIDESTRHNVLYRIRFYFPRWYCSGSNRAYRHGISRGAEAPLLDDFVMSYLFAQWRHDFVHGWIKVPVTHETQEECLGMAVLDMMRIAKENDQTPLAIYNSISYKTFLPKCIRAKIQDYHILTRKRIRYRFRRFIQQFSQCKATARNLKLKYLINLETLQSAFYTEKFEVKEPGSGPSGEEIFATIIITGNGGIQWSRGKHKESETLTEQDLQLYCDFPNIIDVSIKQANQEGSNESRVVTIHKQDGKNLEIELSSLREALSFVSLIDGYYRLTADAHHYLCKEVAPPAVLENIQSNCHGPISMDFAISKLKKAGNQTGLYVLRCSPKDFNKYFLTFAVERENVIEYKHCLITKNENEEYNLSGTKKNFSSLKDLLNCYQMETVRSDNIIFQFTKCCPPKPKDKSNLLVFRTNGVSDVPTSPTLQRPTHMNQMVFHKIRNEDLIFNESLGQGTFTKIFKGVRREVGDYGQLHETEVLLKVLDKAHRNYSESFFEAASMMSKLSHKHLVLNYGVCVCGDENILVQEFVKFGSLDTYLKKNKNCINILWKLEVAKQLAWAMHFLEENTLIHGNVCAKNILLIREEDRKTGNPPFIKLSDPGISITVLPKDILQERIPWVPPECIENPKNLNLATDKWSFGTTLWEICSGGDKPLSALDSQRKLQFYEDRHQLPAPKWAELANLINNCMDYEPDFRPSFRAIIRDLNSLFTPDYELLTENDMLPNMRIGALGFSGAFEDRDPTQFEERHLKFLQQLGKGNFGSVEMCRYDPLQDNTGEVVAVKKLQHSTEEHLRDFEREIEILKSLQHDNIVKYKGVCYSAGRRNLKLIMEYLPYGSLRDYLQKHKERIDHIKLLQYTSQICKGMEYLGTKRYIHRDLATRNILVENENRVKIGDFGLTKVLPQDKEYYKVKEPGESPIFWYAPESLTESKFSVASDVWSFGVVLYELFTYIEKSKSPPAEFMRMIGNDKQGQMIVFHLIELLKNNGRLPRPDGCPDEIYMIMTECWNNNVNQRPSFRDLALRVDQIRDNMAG
VALUE KIND: Kinase activity @ 500 nM (%) JAK2

[[record]]
compound = "CCCCN1CCN(c2ccc(Nc3ncc(F)c(-c4cnn(C(C)C)c4)n3)nc2)CC1"
experimental_system = "JAK2 (Homo sapiens)"
experimental_value = "97%"

[[record]]
compound = "Cc1cnc(Nc2ccc(NC(=O)CN3CCS(=O)(=O)CC3)c(F)c2)nc1-c1cnn(C(C)C)c1"
experimental_system = "JAK2 (Homo sapiens)"
experimental_value = "97%"

[[record]]
compound = "CCCN(C)C1CCN(c2ccc(Nc3ncc(C)c(-c4cnn(C(C)C)c4)n3)cc2F)CC1"
experimental_system = "JAK2 (Homo sapiens)"
experimental_value = "95%"

[[record]]
compound = "CCCCN1CCC(n2cc(-c3nc(Nc4ccc(N5CCN(C)CC5)c(F)c4)ncc3F)cn2)CC1"
experimental_system = "JAK2 (Homo sapiens)"
experimental_value = "89%"

[[record]]
compound = "Cc1cnc(Nc2ccc(N3CCC(N(C)CCN4CCN(C(C)C)CC4)CC3)c(F)c2)nc1-c1cnn(C(C)C)c1"
experimental_system = "JAK2 (Homo sapiens)"
experimental_value = "95%"

[[record]]
compound = "CCCC(O)CN1CC2(CCN(c3ccc(Nc4ncc(C)c(-c5cnn(C(C)C)c5)n4)cc3F)CC2)C1 (centres unmarked)"
experimental_system = "JAK2 (Homo sapiens)"
experimental_value = "90%"

[[record]]
compound = "CCCCN(C)C1CCN(c2ccc(Nc3ncc(C)c(-c4cnn(C(C)C)c4)n3)cc2F)CC1"
experimental_system = "JAK2 (Homo sapiens)"
experimental_value = "89%"

[[record]]
compound = "Cc1c(-c2nc(Nc3ccc(N4CCN(C)CC4)c(F)c3)ncc2F)cnn1C(C)C"
experimental_system = "JAK2 (Homo sapiens)"
experimental_value = "92%"


---

system: SET-2 cells (JAK2 V617F); assay: Inhibition of cell proliferation by MTT experiment, SET-2; assay type: cell-based; settings: Homo sapiens, SET-2; MTT, 72 h; read-out: IC50 value on cell proliferation inhibition, SET-2 (V617F)
pIC50: −log10 of the molar value.
# reported pIC50; entries follow
VALUE KIND: pIC50

[[record]]
compound_structure_string = "CCCn1cc(-c2nc(Nc3ccc(N4CCN(CC)CC4)cc3F)ncc2F)cn1"
value_kind = "pIC50"
experimental_value = "< 6.00"

[[record]]
compound_structure_string = "Cc1cnc(Nc2ccc(CNC(=O)/C=C/CN(C)C)cc2)nc1-c1cnn(C(C)C)c1"
value_kind = "pIC50"
experimental_value = "6.00 to 7.00"

[[record]]
compound_structure_string = "CCCN(C)C1CCN(c2ccc(Nc3ncc(C)c(-c4cnn(C(C)C)c4)n3)cc2F)CC1"
value_kind = "pIC50"
experimental_value = "6.00 to 7.00"

[[record]]
compound_structure_string = "Cc1cnc(Nc2ccc(CNC(=O)CCCl)cc2)nc1-c1cnn(C(C)C)c1"
value_kind = "pIC50"
experimental_value = "< 6.00"

[[record]]
compound_structure_string = "Cc1cnc(Nc2ccc(N3CCC(N(C)CCN4CCN(C)CC4)CC3)c(F)c2)nc1-c1cnn(C(C)C)c1"
value_kind = "pIC50"
experimental_value = "6.00 to 7.00"

[[record]]
compound_structure_string = "CC(C)n1cc(-c2nc(Nc3ccc(N4CCCC4)c(F)c3)ncc2F)cn1"
value_kind = "pIC50"
experimental_value = "< 6.00"

[[record]]
compound_structure_string = "CCCCn1cc(-c2nc(Nc3ccc(N4CCN(C)CC4)c(F)c3)ncc2F)cn1"
value_kind = "pIC50"
experimental_value = "< 6.00"

[[record]]
compound_structure_string = "Cc1cnc(Nc2ccc(CNC(=O)CCCN(C)C)cc2)nc1-c1cnn(C(C)C)c1"
value_kind = "pIC50"
experimental_value = "6.00 to 7.00"

[[record]]
compound_structure_string = "CCCCCCN1CC2(CCN(c3ccc(Nc4ncc(C)c(-c5cnn(C(C)C)c5)n4)cc3F)CC2)C1"
value_kind = "pIC50"
experimental_value = "7.00 to 8.00"


---

# reported inhibition at 0.5 µM; entries follow
target: FLT3 (Homo sapiens); construct: purchased Eurofins; assay: In vitro kinase activity experiment, FLT3; assay type: biochemical; settings: 40 min; inhibition rate of enzyme at 500 nM; measured by Eurofins; read-out: Kinase activity @ 500 nM (%) FLT3
Sequence (P36888 27-993): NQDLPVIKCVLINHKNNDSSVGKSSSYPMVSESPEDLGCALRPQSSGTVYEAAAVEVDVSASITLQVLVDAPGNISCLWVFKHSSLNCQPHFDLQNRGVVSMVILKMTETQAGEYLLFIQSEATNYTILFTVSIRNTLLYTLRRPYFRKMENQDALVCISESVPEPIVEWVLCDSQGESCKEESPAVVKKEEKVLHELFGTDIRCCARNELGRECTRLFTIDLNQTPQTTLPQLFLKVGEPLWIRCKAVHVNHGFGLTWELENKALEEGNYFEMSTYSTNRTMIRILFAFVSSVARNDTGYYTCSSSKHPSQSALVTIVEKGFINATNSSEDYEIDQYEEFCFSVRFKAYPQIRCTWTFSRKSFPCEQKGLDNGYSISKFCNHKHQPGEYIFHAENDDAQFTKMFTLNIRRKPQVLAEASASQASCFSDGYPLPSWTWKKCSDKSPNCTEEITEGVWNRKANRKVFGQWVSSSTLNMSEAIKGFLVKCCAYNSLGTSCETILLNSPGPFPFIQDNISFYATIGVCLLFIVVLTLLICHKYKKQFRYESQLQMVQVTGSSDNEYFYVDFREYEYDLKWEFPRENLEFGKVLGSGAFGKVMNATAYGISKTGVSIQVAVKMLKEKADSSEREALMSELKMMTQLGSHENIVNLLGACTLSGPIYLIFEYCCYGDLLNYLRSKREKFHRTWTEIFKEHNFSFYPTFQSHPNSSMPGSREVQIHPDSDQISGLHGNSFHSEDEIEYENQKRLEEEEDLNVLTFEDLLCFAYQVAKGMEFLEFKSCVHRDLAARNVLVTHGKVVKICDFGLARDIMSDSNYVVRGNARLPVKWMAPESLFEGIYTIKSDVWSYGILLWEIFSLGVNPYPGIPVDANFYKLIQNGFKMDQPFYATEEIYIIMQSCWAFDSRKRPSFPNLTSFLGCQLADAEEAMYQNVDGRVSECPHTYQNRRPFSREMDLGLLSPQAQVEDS
VALUE KIND: inhibition at 0.5 µM (%)

[[record]]
compound = "CC(C)n1cc(-c2nc(Nc3ccc(N4CCC(N5CCCCC5)CC4)c(F)c3)ncc2F)cn1 [CLJ-33]"
u = "%"
experimental_value = 23

[[record]]
compound = "CCN1CCN(Cc2ccc(Nc3ncc(F)c(-c4cnn(C(C)C)c4)n3)nc2)CC1 [CLJ-21]"
u = "%"
experimental_value = 75

[[record]]
compound = "Cc1cnc(Nc2ccc(N3CCC(N(C)C(=O)CO)CC3)c(F)c2)nc1-c1cnn(C(C)C)c1 [CLJ-41]"
u = "%"
experimental_value = 97

[[record]]
compound = "CC(C)n1cc(-c2nc(Nc3cccc(N4CCN(C)CC4)c3)ncc2F)cn1 [CLJ-19]"
u = "%"
experimental_value = 95


---

Recorded below: IC50, system JAK2 (Homo sapiens, UniProt O60674).
VALUE KIND: IC50 (nM)

[[record]]
compound_structure_string = "Cc1cnc(Nc2ccc(N3CCC(N(C)C)CC3)c(F)c2)nc1-c1cnn(C(C)C)c1"
experimental_value = 2

[[record]]
compound_structure_string = "Cc1cnc(Nc2ccc(N3CCC(N(C)CC4CC4)CC3)c(F)c2)nc1-c1cnn(C(C)C)c1"
experimental_value = 1

[[record]]
compound_structure_string = "Cc1cnc(Nc2ccc(NS(=O)(=O)c3ccc(C(F)(F)F)cc3)c(F)c2)nc1-c1cnn(C(C)C)c1"
experimental_value = 2


---

test system: SET-2 cells (JAK2 V617F); assay: Inhibition of cell proliferation by MTT experiment, SET-2; type: cell-based; conditions: Homo sapiens, SET-2; MTT, 72 h; read-out: IC50 value on cell proliferation inhibition, SET-2 (V617F)
VALUE KIND: IC50

[[record]]
compound_structure_string = "CCS(=O)(=O)c1nn(C(C)C)cc1-c1nc(Nc2ccc(N3CCC(N(C)CCO)CC3)c(F)c2)ncc1C"
experimental_value = "0.1 to 1 µM"

[[record]]
compound_structure_string = "CCCCN1CCC(n2cc(-c3nc(Nc4ccc(N5CCN(C)CC5)c(F)c4)ncc3F)cn2)CC1"
experimental_value = "> 1 µM"

[[record]]
compound_structure_string = "Cc1nn(C(C)C)cc1-c1nc(Nc2ccc(N3CCN(C)CC3)c(F)c2)ncc1F"
experimental_value = "0.1 to 1 µM"

[[record]]
compound_structure_string = "CCCn1cc(-c2nc(Nc3cc(CN4CCN(CC)CC4)c(F)cn3)ncc2F)cn1"
experimental_value = "> 1 µM"


---

# reported IC50; entries follow
system: SET-2 cells (JAK2 V617F); test: Inhibition of cell proliferation by MTT experiment, SET-2; type: cell-based; conditions: Homo sapiens, SET-2; MTT, 72 h; read-out: IC50 value on cell proliferation inhibition, SET-2 (V617F)
VALUE KIND: IC50

[[record]]
compound = "Cc1cnc(Nc2ccc(N3CCC(N(C)CCN4CCCCC4)CC3)c(F)c2)nc1-c1cnn(C(C)C)c1"
experimental_system = "SET-2 cells (JAK2 V617F)"
value_kind = "IC50"
experimental_value = "> 1 µM"

[[record]]
compound = "CCCn1cc(-c2nc(Nc3ccc(N4CCN(CC)CC4)c(F)c3)ncc2F)cn1"
experimental_system = "SET-2 cells (JAK2 V617F)"
value_kind = "IC50"
experimental_value = "> 1 µM"

[[record]]
compound = "CCCCN1CC2(CCN(c3ccc(Nc4ncc(C)c(-c5cnn(C(C)C)c5)n4)cc3F)CC2)C1"
experimental_system = "SET-2 cells (JAK2 V617F)"
value_kind = "IC50"
experimental_value = "0.1 to 1 µM"

[[record]]
compound = "CCN1CC2(CCN(c3ccc(Nc4ncc(C)c(-c5cnn(C(C)C)c5)n4)cc3F)CC2)C1"
experimental_system = "SET-2 cells (JAK2 V617F)"
value_kind = "IC50"
experimental_value = "0.1 to 1 µM"

[[record]]
compound = "Cc1cnc(Nc2ccc(N3CCC(N(C)CCCCCO)CC3)c(F)c2)nc1-c1cnn(C(C)C)c1"
experimental_system = "SET-2 cells (JAK2 V617F)"
value_kind = "IC50"
experimental_value = "0.1 to 1 µM"

[[record]]
compound = "CCCN1CCC(n2cc(-c3nc(Nc4ccc(N5CCN(C)CC5)c(F)c4)ncc3F)cn2)CC1"
experimental_system = "SET-2 cells (JAK2 V617F)"
value_kind = "IC50"
experimental_value = "> 1 µM"

[[record]]
compound = "Cc1cnc(Nc2ccc(N3CCC(N(C)CC4CCCO4)CC3)c(F)c2)nc1-c1cnn(C(C)C)c1 (centres unmarked)"
experimental_system = "SET-2 cells (JAK2 V617F)"
value_kind = "IC50"
experimental_value = "0.1 to 1 µM"

[[record]]
compound = "CC(C)n1cc(-c2nc(Nc3ccc(N4CCC(N(C)C)CC4)c(F)c3)ncc2F)cn1"
experimental_system = "SET-2 cells (JAK2 V617F)"
value_kind = "IC50"
experimental_value = "0.1 to 1 µM"

